Test system: Candida albicans
test.method.notes: Antifungal activity against Candida albicans ATCC 10231 after 24 hrs by microbroth double dilution method
Type: functional
condition.context: ATCC 10231, 24 h

>  <smiles.data>
CC(C)(C)C1=CC(=O)C=C(N[C@@H](Cc2ccccc2)C(=O)O)C1=O

>  <MIC>
480 µM

$$$$
>  <smiles.data>
CC(C)(C)C1=CC(=O)C=C(NCC(=O)O)C1=O

>  <MIC>
662 µM

$$$$
>  <smiles.data>
CC(C)(C)C1=CC(=O)C=C(N[C@@H](Cc2c[nH]c3ccccc23)C(=O)O)C1=O

>  <MIC>
213 µM

$$$$
>  <smiles.data>
CC1=CCC[C@H]2[C@](C)(CC3=CC(=O)C=C(N[C@@H](Cc4ccccc4)C(=O)O)C3=O)[C@@H](C)CC[C@]12C

>  <MIC>
164 µM

$$$$
>  <smiles.data>
CC(C)[C@@H](NC1=CC(=O)C=C(C(C)(C)C)C1=O)C(=O)O

>  <MIC>
563 µM

$$$$
>  <smiles.data>
CC(C)C[C@H](NC1=CC(=O)C=C(C(C)(C)C)C1=O)C(=O)O

>  <MIC>
536 µM

$$$$
>  <smiles.data>
C[C@H](NC1=CC(=O)C=C(C(C)(C)C)C1=O)C(=O)O

>  <MIC>
626 µM

$$$$
>  <smiles.data>
CC1=CCC[C@H]2[C@](C)(CC3=CC(=O)C=C(N[C@@H](Cc4c[nH]c5ccccc45)C(=O)O)C3=O)[C@@H](C)CC[C@]12C

>  <MIC>
305 µM

$$$$
>  <smiles.data>
CC(C)(C)C1=CC(=O)C=CC1=O

>  <MIC>
122 µM

$$$$
